This listing pairs compounds with measured Ratio.
- study-target: Serine/threonine-protein kinase mTOR (Homo sapiens)
- assay-name: Inhibition of mTOR (unknown origin) assessed as ratio of cytoplasmic to nuclear level of eukaryotic initiation factor 4E

chem-smiles | Ratio
CCc1n(Cc2c(-c3ccccc3)oc3ccccc23)cc[n+]1Cc1ccccc1Br.[Br-] | 1.07
c1ccc(C[n+]2cn(Cc3c(-c4ccccc4)oc4ccccc34)c3ccccc32)cc1 | 1.54
O=C(C[n+]1cnn(Cc2c(-c3ccccc3)oc3ccccc23)c1)c1ccccc1 | 1.11
O=C(C[n+]1cnn(Cc2c(-c3ccccc3)oc3ccccc23)c1)c1ccc2ccccc2c1 | 0.96
COc1ccc(C(=O)C[n+]2cn(Cc3c(-c4ccccc4)oc4ccccc34)c3ccccc32)cc1 | 1.32
CCc1n(Cc2c(-c3ccccc3)oc3ccccc23)cc[n+]1CC(=O)c1ccc2ccccc2c1 | 1.55
